test_target: endogenous MLKL in U937 (Homo sapiens (Human), UniProt Q8NB16)
Sequence (Q8NB16 whole entry): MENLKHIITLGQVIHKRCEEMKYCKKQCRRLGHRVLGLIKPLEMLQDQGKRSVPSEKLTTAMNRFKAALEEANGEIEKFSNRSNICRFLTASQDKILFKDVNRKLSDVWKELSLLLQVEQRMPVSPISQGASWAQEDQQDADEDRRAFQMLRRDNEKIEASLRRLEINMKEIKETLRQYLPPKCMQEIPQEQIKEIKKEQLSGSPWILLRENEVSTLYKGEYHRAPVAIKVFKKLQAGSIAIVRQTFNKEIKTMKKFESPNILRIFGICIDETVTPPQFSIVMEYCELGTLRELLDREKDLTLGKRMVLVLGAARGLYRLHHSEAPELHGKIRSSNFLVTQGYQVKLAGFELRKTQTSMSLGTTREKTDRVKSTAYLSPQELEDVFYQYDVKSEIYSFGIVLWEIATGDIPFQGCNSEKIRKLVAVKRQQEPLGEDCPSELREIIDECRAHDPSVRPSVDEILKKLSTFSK
protocol_summary: Degradation assay: degradation of endogenous MLKL in human cells (Western blot)
protocol_conditions: 24 h incubation, read-out: Degradation of endogenous MLKL in U937 (DC50 cell-based assay in μM)
Method: DEGRADATION ASSAY: Screening Compounds Procedure to Evaluate the Activity of Compounds in Degrading Endogenous MLKL in Human Cell […] Membranes were blocked with 5% skim milk in TBST. […] The signal was detected as described above. The band intensity was measured in the ImageLab Software (BIO-RAD) and the MLKL values adjusted for loading with GAPDH. The percentage of degradation was calculated by normalizing the compound treated values to the DMSO only control.
Quick reference for DC50 among some molecules

Here is how some molecules turned out for DC50.
| molecule | test_target | DC50 |
| --- | --- | --- |
| CCS(=O)(=O)Nc1ccc(-c2n[nH]c(Nc3ccc(C(=O)NCC(=O)N[C@@H](C(=O)N4C[C@@H](O)C[C@@H]4C(=O)NCc4ccc(-c5scnc5C)cc4)C(C)(C)C)cn3)c2C(N)=O)cc1O[C@H](C)c1ccc(F)cc1 (stereo in doubt) | endogenous MLKL in U937 (Homo sapiens (Human), UniProt Q8NB16) | 1 to 10 µM |
| CCS(=O)(=O)Nc1ccc(-c2n[nH]c(Nc3ccc(C(=O)OCCCCC(=O)N[C@H](C(=O)N4CC(O)C[C@H]4C(=O)NCc4ccc(-c5scnc5C)cc4)C(C)(C)C)cn3)c2C(N)=O)cc1O[C@@H](C)c1ccc(F)cc1 (stereo in doubt) | endogenous MLKL in U937 (Homo sapiens (Human), UniProt Q8NB16) | < 1 µM |
| CCS(=O)(=O)Nc1ccc(-c2n[nH]c(Nc3ccnc(OCCCCC(=O)N[C@H](C(=O)N4C[C@H](O)C[C@H]4C(=O)NCc4ccc(-c5scnc5C)cc4)C(C)(C)C)c3)c2C(N)=O)cc1 | endogenous MLKL in U937 (Homo sapiens (Human), UniProt Q8NB16) | 1 to 10 µM |
| CCS(=O)(=O)Nc1ccc(-c2n[nH]c(Nc3ccc(C(=O)OCCCCC(=O)N[C@H](C(=O)N4C[C@H](O)C[C@H]4C(=O)NCc4ccc(-c5scnc5C)cc4)C(C)(C)C)cn3)c2C(N)=O)cc1O[C@@H](C)c1ccc(F)cc1 | endogenous MLKL in U937 (Homo sapiens (Human), UniProt Q8NB16) | < 1 µM |
| CCS(=O)(=O)Nc1ccc(-c2n[nH]c(Nc3ccc(OCCCCC(=O)N[C@H](C(=O)N4C[C@H](O)C[C@H]4C(=O)NCc4ccc(-c5scnc5C)cc4)C(C)(C)C)cn3)c2C(N)=O)cc1OCc1ccc(F)cc1 | endogenous MLKL in U937 (Homo sapiens (Human), UniProt Q8NB16) | < 1 µM |

DC50 recorded for this molecule, Cc1ncsc1-c1ccc(CNC(=O)[C@@H]2C[C@@H](O)CN2C(=O)[C@@H](NC(=O)CCCCOc2ccc(Nc3[nH]nc(-c4ccc(NS(=O)(=O)C(F)F)cc4)c3C(N)=O)nc2)C(C)(C)C)cc1 , is 1 to 10 µM

Lookup result for Cc1ncsc1-c1ccc(CNC(=O)[C@@H]2C[C@@H](O)CN2C(=O)[C@@H](NC(=O)CCCCOc2ccc(Nc3[nH]nc(-c4ccc(NS(=O)(=O)CC(F)(F)F)cc4)c3C(N)=O)nc2)C(C)(C)C)cc1 ; measured DC50: < 1 µM

Value of measured DC50 for the entry CCS(=O)(=O)Nc1ccc(-c2n[nH]c(Nc3ccc(C(=O)OCC(=O)N[C@H](C(=O)N4C[C@H](O)C[C@H]4C(=O)NCc4ccc(-c5scnc5C)cc4)C(C)(C)C)cn3)c2C(N)=O)cc1O[C@@H](C)c1ccc(F)cc1 : < 1 µM

Entry under test: CCS(=O)(=O)Nc1ccc(-c2n[nH]c(Nc3cnc(OCCCCC(=O)N[C@H](C(=O)N4C[C@H](O)C[C@H]4C(=O)NCc4ccc(-c5scnc5C)cc4)C(C)(C)C)cn3)c2C(N)=O)cc1OCc1ccc(F)cc1 . Its DC50 was < 1 µM

So, CCS(=O)(=O)Nc1ccc(-c2n[nH]c(Nc3ccc(C(=O)OCCCCCC(=O)N[C@H](C(=O)N4C[C@H](O)C[C@H]4C(=O)NCc4ccc(-c5scnc5C)cc4)C(C)(C)C)cn3)c2C(N)=O)cc1O[C@@H](C)c1ccc(F)cc1 ? Its DC50 was < 1 µM

Value of measured DC50 for the entry CCS(=O)(=O)Nc1ccc(-c2n[nH]c(Nc3ccc(C(=O)NCCCCC(=O)N[C@@H](C(=O)N4C[C@@H](O)C[C@@H]4C(=O)NCc4ccc(-c5scnc5C)cc4)C(C)(C)C)cn3)c2C(N)=O)cc1OC(C)c1ccc(F)cc1 (stereo in doubt) : 1 to 10 µM

Measured DC50 of CCS(=O)(=O)Nc1ccc(-c2n[nH]c(Nc3ccc(C(=O)OCCCCCCC(=O)N[C@H](C(=O)N4C[C@H](O)C[C@H]4C(=O)NCc4ccc(-c5scnc5C)cc4)C(C)(C)C)cn3)c2C(N)=O)cc1O[C@@H](C)c1ccc(F)cc1 : < 1 µM

The molecule identified as Cc1ncsc1-c1ccc(CNC(=O)[C@@H]2C[C@@H](O)CN2C(=O)[C@@H](NC(=O)c2ccc(Cn3ccc(Nc4[nH]nc(-c5ccc(NS(=O)(=O)C(F)F)c(O[C@@H](C)c6ccc(F)cc6)c5)c4C(N)=O)n3)cc2)C(C)(C)C)cc1 registered its DC50 at < 1 µM

// DC50 lookup, molecule = CCS(=O)(=O)Nc1ccc(-c2n[nH]c(Nc3ccc(C(=O)OCCCC(=O)N[C@H](C(=O)N4C[C@H](O)C[C@H]4C(=O)NCc4ccc(-c5scnc5C)cc4)C(C)(C)C)cn3)c2C(N)=O)cc1O[C@@H](C)c1ccc(F)cc1 , result: < 1 µM

The molecule Cc1ncsc1-c1ccc(CNC(=O)[C@@H]2C[C@@H](O)CN2C(=O)[C@@H](NC(=O)CCCCCCn2ccc(Nc3[nH]nc(-c4ccc(NS(=O)(=O)C(F)F)c(O[C@@H](C)c5ccc(F)cc5)c4)c3C(N)=O)n2)C(C)(C)C)cc1 showed DC50 equal to 1 to 10 µM

Record Cc1ncsc1-c1ccc(CNC(=O)[C@@H]2C[C@@H](O)CN2C(=O)[C@@H](NC(=O)CCCCOC(=O)c2ccc(Nc3[nH]nc(-c4ccc(NS(=O)(=O)C(F)F)c(F)c4)c3C(N)=O)nc2)C(C)(C)C)cc1 . Reported DC50: 1 to 10 µM
